Test: Lethal dose in mice
Format: toxicity
Conditions: mouse, in vivo
Observation Type: LD50

[Q] Can you share its LD50? I mean this compound: Nc1nnc(-c2ccccc2SCc2ccccc2)o1
[A] > 300 mg/kg
